Reported OD450 values for the following binders.
Target: T1, human MSLN-R1-his protein (human, UniProt Q13421 296-390)
T1 construct: Self-made in HEK293E cells; also called human MSLN-R1 protein; hMSLN-R1-his; not shown: His tag
T1 chain: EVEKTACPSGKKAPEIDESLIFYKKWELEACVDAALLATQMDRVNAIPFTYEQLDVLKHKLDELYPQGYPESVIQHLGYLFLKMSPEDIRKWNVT
Test: ELISA on coated antigen, antibody 0.1 nM
Write it as a number; the unit OD450 goes unstated.

| Binder | OD450, OD450 |
| --- | --- |
| S009-F3.38.10 (antibody, human IgG1, kappa, V domains shown, Human-murine chimeric antibody: murine VH/VL on human IgG1 heavy and kappa light constant regions) VH: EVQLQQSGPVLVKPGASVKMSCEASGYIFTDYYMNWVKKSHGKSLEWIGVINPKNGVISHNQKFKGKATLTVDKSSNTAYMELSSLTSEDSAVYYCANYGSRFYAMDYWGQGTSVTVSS VL: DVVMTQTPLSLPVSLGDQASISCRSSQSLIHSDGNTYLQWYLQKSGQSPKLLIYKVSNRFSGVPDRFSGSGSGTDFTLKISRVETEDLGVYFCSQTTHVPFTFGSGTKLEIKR | 0.06 |

Entry under review: S009-F3.7.3 (antibody, human IgG1, kappa, V domains shown, Human-murine chimeric antibody: murine VH/VL on human IgG1 heavy and kappa light constant regions) VH: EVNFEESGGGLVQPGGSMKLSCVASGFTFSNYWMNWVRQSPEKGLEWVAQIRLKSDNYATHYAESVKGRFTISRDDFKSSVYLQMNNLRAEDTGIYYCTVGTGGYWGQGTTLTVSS VL: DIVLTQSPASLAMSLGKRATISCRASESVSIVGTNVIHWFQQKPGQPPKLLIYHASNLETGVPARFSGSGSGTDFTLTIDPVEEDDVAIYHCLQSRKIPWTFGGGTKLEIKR . Reported OD450? 0.07

Next: S009-F3.74.20 (antibody, human IgG1, kappa, V domains shown, Human-murine chimeric antibody: murine VH/VL on human IgG1 heavy and kappa light constant regions) VH: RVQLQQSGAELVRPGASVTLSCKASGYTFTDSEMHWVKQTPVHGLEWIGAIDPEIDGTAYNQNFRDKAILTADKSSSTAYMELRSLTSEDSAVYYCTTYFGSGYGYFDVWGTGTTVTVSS VL: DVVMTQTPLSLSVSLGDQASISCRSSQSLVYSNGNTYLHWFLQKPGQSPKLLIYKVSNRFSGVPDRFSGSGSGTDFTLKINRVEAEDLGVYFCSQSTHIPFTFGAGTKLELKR 0.06
